Tested on: T-47D breast
Assay explanation: NCI-60 one-dose screen, 48 h (100 = growth as untreated, 0 = no growth, -100 = all killed)
Recorded conditions: 10 µM unless noted
This is part of a sample that, as a whole, favours compounds with a hit. Of some 83,000 tested, about 20% had one in any assay. Activity calls are given as the source filed them. The calls were made as follows: active = growth percent below 10; inactive = the rest.
Observable: growth

[
  {
    "Molecule": "CCOC(=O)c1c(NC(=O)c2ccc(C(C)(C)C)cc2)sc2cc(O)ccc12",
    "Observable": "growth",
    "Recorded measurement": "82.7% (inactive)"
  },
  {
    "Molecule": "CCOC(=O)c1c(NC(=O)c2ccc(OC)cc2)sc2c(CN(C)C)c(O)ccc12",
    "Observable": "growth",
    "Recorded measurement": "77.3% (inactive)"
  },
  {
    "Molecule": "Cc1[nH]c(C(=O)Nc2ccc(C(N)=O)cc2NC(C)C)c(Cl)c1Cl",
    "Observable": "growth",
    "Recorded measurement": "82.6% (inactive)"
  },
  {
    "Molecule": "COc1ccc(-c2cc(C(=O)N3N=C(c4ccc(N)cc4)CC3c3ccccc3)c3ccccc3n2)cc1 (configuration not stated)",
    "Observable": "growth",
    "Recorded measurement": "38.2% (inactive)"
  },
  {
    "Molecule": "CNCc1cccc2c1OCCOCCN(C)C(=O)CN(C)S(=O)(=O)c1ccc(cc1)-c1cnc(N)c(n1)C(=O)N2",
    "Observable": "growth",
    "Recorded measurement": "-9.54% (active)"
  }
]

# input molecule: C#Cc1cccc(Oc2ccc(NC(=O)CCl)cc2)c1 ; wanted: its growth
53.9% [8.25 µM] (inactive)

Which growth is listed for CC(C)CCSc1nc(Nc2ccccc2)c(C#N)c(-c2ccccc2)n1 ?
58.3% (inactive)

###

Test system: HCC-2998 colon
Assay explanation: NCI-60 one-dose screen, 48 h
Recorded conditions: 10 µM unless noted
About 83,000 compounds went through this panel and 20% of them were active in at least one assay; those are over-represented in the sample as a whole. Active and inactive are the calls of the source. Rule for the calls: active = growth percent below 10; inactive = the rest.
Mark one answer only. Choices: TRUE (active), FALSE (inactive)

Example entries begin here.
[
  {
    "Compound": "CC(C)c1ccc(C(=O)Nc2sc3cc(O)ccc3c2C#N)cc1",
    "Group": "FALSE"
  },
  {
    "Compound": "O=C(/C=C/C12c3ccccc3C(c3ccccc31)C1C(=O)NC(=O)C12)c1ccccn1 (stereo unspecified)",
    "Group": "FALSE"
  },
  {
    "Compound": "CCOc1ccc(NC(=O)c2cc(OC)c(OC)c(OC)c2)cc1",
    "Group": "FALSE"
  },
  {
    "Compound": "CC(C)c1ccc(-n2c(=S)[nH]c3sc4c(c3c2=O)CCC(=O)C4)cc1",
    "Group": "FALSE"
  },
  {
    "Compound": "CN1CCN(Cc2ccc(NC(=O)c3cncc(C#Cc4cncc5[nH]ncc45)c3)cc2C(F)(F)F)CC1",
    "Group": "TRUE"
  },
  {
    "Compound": "O=C(OC[C@@H]1CO1)c1cccc2c(=O)c3ccccc3[nH]c12",
    "Group": "TRUE"
  }
]

Recorded test outcome, item O=C(NCc1ccccc1O)c1cccc2ccccc12
FALSE

For O=C1CCCc2nc3sc4c(=O)n(-c5ccccc5Cl)nnc4c3cc21 , which call appears in the assay record?
FALSE

How did this test come out for CN1CCN(Cc2ccc(NC(=O)c3cncc(C#Cc4cnn5ccccc45)c3)cc2C(F)(F)F)CC1 ?
TRUE

Check the results log: what was the call for CCCCCCCCn1ccc2cc(NC(=O)Cn3cc(CN4CCCCCC4)nn3)ccc21 ?
TRUE

Please let me know the test result on file for c1ccc2cc(Cn3c[n+](Cc4ccc5ccccc5c4)c4ccccc43)ccc2c1 .
TRUE

Dear all, I need the recorded test outcome for Cn1ccnc1C(=O)/C=C/c1ccc(C(=O)Nc2ccc(F)cc2)cc1 , thank you.
TRUE

Please share the test call associated with CN(C)c1ccc(-c2cc(-c3ccc(Nc4nc(Nc5ccc(Cl)cc5)nc(Nc5ccc(Cl)cc5)n4)cc3)nc(N)c2C#N)cc1 .
FALSE

Please state the recorded outcome for this compound: N#CCC1=NC(c2cccs2)=Nc2ccccc2S1
FALSE

Hey, what did the test say about Cc1cc(C)cc(Nc2ccc([N+](=O)[O-])c(NCCN3CCOCC3)n2)c1 ?
TRUE

GET /call?item= COc1cc2c(cc1O)[C@@]1(C)[C@H](c3ccccc3Br)OC(=O)N1CC2 returns the recorded outcome of this test.
FALSE
